Parameter: furin cleavage Z-score. Scope: all listed entries.
Target System: furin, P09958;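 also: purified furin at 1:10 enzyme:substrate in 50 mM HEPES pH 7.5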
Sequence (P09958 whole entry): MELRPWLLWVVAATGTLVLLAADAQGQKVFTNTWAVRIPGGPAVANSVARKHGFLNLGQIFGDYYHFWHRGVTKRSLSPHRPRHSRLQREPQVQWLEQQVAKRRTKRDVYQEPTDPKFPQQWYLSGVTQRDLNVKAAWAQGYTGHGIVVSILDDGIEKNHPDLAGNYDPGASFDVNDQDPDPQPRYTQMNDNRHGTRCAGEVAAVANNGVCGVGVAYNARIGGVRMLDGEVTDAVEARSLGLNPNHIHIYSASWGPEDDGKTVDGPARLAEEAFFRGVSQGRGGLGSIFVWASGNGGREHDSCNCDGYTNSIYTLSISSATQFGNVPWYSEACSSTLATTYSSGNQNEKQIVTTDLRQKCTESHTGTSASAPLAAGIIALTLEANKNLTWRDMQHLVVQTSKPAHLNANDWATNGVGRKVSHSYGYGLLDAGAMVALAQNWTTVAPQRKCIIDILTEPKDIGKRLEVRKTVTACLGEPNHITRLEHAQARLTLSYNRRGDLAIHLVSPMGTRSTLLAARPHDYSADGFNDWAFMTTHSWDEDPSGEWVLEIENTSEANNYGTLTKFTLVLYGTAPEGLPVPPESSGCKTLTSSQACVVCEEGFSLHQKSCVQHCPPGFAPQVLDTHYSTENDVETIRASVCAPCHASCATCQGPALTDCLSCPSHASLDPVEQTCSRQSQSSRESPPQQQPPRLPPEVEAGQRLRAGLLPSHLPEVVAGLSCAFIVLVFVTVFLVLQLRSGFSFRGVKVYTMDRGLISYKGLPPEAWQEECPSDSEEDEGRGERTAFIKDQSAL
Assay Text: furin cleavage Z-score vs untreated control; higher = more cleavage, active = 3.5 or more, inactive = 1 or less, 8 variable residues between constant flanks
Applied Conditions: 30 min
The list shows a part of the results. No count for the full screen is at hand.

Residue Codes: CAVRTRIKRSAGNASASA [FS-1179]
furin cleavage Z-score: 9.29
--
Residue Codes: CAMEECSFHLAGNASASA [HC1727]
furin cleavage Z-score: 1.18
--
Residue Codes: CASCQRRTRFAGNASASA [FS-379]
furin cleavage Z-score: 2.4
--
Residue Codes: CAAGAHWGVLAGNASASA [HC335]
furin cleavage Z-score: 0.539
--
Residue Codes: CARLPRDCTRAGNASASA [FS-1742]
furin cleavage Z-score: 5.25
--
Residue Codes: CALRIRNVRFAGNASASA [FS-1465]
furin cleavage Z-score: 7.62
--
Residue Codes: CAFDQGWGPIAGNASASA [HC393]
furin cleavage Z-score: -0.893
--
Residue Codes: CARFYRSRKKAGNASASA [FS-1707]
furin cleavage Z-score: 0.114
--
Residue Codes: CAAKLMPQLPAGNASASA [HC1159]
furin cleavage Z-score: 0.241
--
Residue Codes: CAAQPGYPWPAGNASASA [HC199]
furin cleavage Z-score: 0.143
--
Residue Codes: CAVRARFVRFAGNASASA [FS-1433]
furin cleavage Z-score: 8.99
--
Residue Codes: CALNRRRRREAGNASASA [FS-355]
furin cleavage Z-score: 8.21
--
Residue Codes: CAESIRMKRYAGNASASA [FS-765]
furin cleavage Z-score: 9.17
--
Residue Codes: CAESGRGKRYAGNASASA [FS-25]
furin cleavage Z-score: 6.23
--
Residue Codes: CAASHRSTRFAGNASASA [FS-1309]
furin cleavage Z-score: 5.05
--
Residue Codes: CACPNIIKRSAGNASASA [FS-1515]
furin cleavage Z-score: 1.43
--
Residue Codes: CAEIVVCCSMAGNASASA [HC2124]
furin cleavage Z-score: 0.583
--
Residue Codes: CADAARVARFAGNASASA [FS-220]
furin cleavage Z-score: 3.56
--
Residue Codes: CAKKWRMKREAGNASASA [FS-809]
furin cleavage Z-score: 10.8
--
Residue Codes: CAVFARHLREAGNASASA [FS-921]
furin cleavage Z-score: 4.54
--
Residue Codes: CAGVNYATGNAGNASASA [HC241]
furin cleavage Z-score: -0.36
--
Residue Codes: CAVSAEEYVEAGNASASA [HC1203]
furin cleavage Z-score: 0.782
--
Residue Codes: CAREARAVIFAGNASASA [FS-3186]
furin cleavage Z-score: 2.23
--
Residue Codes: CARLPRATGNAGNASASA [FS-2571]
furin cleavage Z-score: 4.58
--
Residue Codes: CAVYARVSRFAGNASASA [FS-517]
furin cleavage Z-score: 2.26
--
Residue Codes: CARDARRLKEAGNASASA [FS-2900]
furin cleavage Z-score: -0.471
--
Residue Codes: CADAESYSSMAGNASASA [HC1351]
furin cleavage Z-score: -0.308
--
Residue Codes: CATTTSSEPAAGNASASA [HC1343]
furin cleavage Z-score: 0.501
--
Residue Codes: CAEVHCHRPSAGNASASA [HC2355]
furin cleavage Z-score: 1.14
